# Test system: C. elegans
# experiment-summary: microbe, parasite or virus in culture
# measurement-setup: Caenorhabditis elegans, 0 h, read-out: Percentage of motility inhibition 0 h, Table S2, C. elegans SS assay, 110 μM, 0 h, averages of 4 data points
Reported inhibition at 110 µM values follow for various compounds
Entry rule: numbers only, all in %.

Examples with answers:
compound	inhibition at 110 µM [%]
CCCCCCCC/C=C\CCCCCCCC(=O)O	0
COC(=O)Nc1nc2ccc(Sc3ccccc3)cc2[nH]1	8
CC(C)(O/N=C(\C(=O)N[C@@H]1C(=O)N2C(C(=O)[O-])=C(C[n+]3ccccc3)CS[C@H]12)c1csc(N)n1)C(=O)O	37
CN1C(=O)C(O)CC1c1cccnc1 (centres unmarked) [Hydroxycotinine]	13
Cc1cn([C@H]2C=C[C@@H](CO)O2)c(=O)[nH]c1=O	25

[Q] # lookup: inhibition at 110 µM of Nc1nc(=O)n([C@@H]2CS[C@H](CO)O2)cc1F
[A] 26

[Q] # lookup: inhibition at 110 µM of CC(=O)O[C@]12CCC(C(=O)O)=CC[C@]13CC[C@H]2[C@@](C)(/C=C/C=C(\C)C(=O)O)OC3=O
[A] 0

[Q] # lookup: inhibition at 110 µM of C[C@H](CCC(=O)O)[C@H]1CC[C@H]2[C@@H]3C[C@H](O)[C@@H]4C[C@H](O)CC[C@]4(C)[C@H]3CC[C@]12C
[A] 2

====

# Test system: C. elegans
# measurement-setup: Table S2, C. elegans SS assay, 110 μM, 0 h, averages of 4 data points
Entries get a class label from measured Percentage of motility inhibition 0 h. See ranges: bucket A (below 7%), bucket B (7% to below 20%), bucket C (20% or more)

Use these answered entries as a reference point.
compound	class-name
CN[C@@H]1[C@@H](O[C@H]2O[C@H](CO)[C@@H](N)[C@H](O)[C@H]2O)OC2C[C@@H](N)[C@@H](O[C@H]3[C@H](O)[C@@H](O)[C@H](N)C[C@@H]3N)OC2[C@@H]1O (stereo partly shown) [Apramycin (sulfate)]	bucket C
CN(Cc1ccc(C(C)(C)C)cc1)Cc1cccc2ccccc12.Cl [Butenafine (Hydrochloride)]	bucket C
[Cl-].c1c2c(cc3c1OCO3)-c1cc3cc4c(cc3c[n+]1CC2)OCO4 [Pseudocoptisine (chloride)]	bucket A
O=CN1C[C@@H]2C[C@H](C1)c1cccc(=O)n1C2 [N‐Formylcytisine]	bucket A

[Q] Could you tell me which band CSC(=O)OCC1=C[C@H](O)[C@H]2C(C(=O)O)=CO[C@@H](O[C@@H]3O[C@@H](CO)[C@@H](O)[C@@H](O)[C@H]3O)[C@H]12 [Paederosidic acid] belongs to?
[A] bucket A

[Q] Could you tell me which band CCn1cc(C(=O)O)c(=O)c2cc(F)c(N3CCNCC3)nc21 [Enoxacin (hydrate)] belongs to?
[A] bucket B

[Q] Could you tell me which band CCN1CCN(C(=O)N[C@@H](C(=O)N[C@@H]2C(=O)N3[C@@H]2SC(C)(C)[C@@H]3C(=O)[O-])c2ccccc2)C(=O)C1=O.[Na+] [Piperacillin (sodium)] belongs to?
[A] bucket C

[Q] Could you tell me which band C1CNCCN1.O=C(O)CCCCC(=O)O [Piperazine adipate] belongs to?
[A] bucket B

[Q] Could you tell me which band C[C@@H]1O[C@@H](OC[C@H]2O[C@@H](Oc3cc(O)c4c(=O)cc(-c5ccc(O)cc5)oc4c3)[C@H](O[C@@H]3O[C@@H](C)[C@H](O)[C@@H](O)[C@H]3O)[C@@H](O)[C@@H]2O)[C@H](O)[C@H](O)[C@H]1O [Ligustroflavone] belongs to?
[A] bucket B

[Q] Could you tell me which band O=S(=O)([O-])O.c1c2c(cc3c1OCO3)-c1cc3ccc4c(c3c[n+]1CC2)OCO4 [Coptisine (Sulfate)] belongs to?
[A] bucket A

[Q] Could you tell me which band CC(=O)O[C@H]1Cc2cc3c(cc2[C@H]2N(C)Cc4c(ccc5c4OCO5)[C@@]12C)OCO3 [Acetylcorynoline] belongs to?
[A] bucket C

[Q] Could you tell me which band CC[C@@]1(O)C(=O)OCc2c1cc1n(c2=O)Cc2cc3c(CN(C)C)c(O)ccc3nc2-1.Cl [Topotecan (hydrochloride)] belongs to?
[A] bucket B

====

# Test system: C. elegans
# experiment-summary: microbe, parasite or virus in culture
# measurement-setup: Caenorhabditis elegans, 0 h, read-out: Percentage of motility inhibition 0 h, Table S2, C. elegans SS assay, 110 μM, 0 h, averages of 4 data points
The threshold is inclusive: inhibition at 110 µM of exactly 10% counts as fulfilled; values below receive not fulfilled.

compound	class-name
CCCOc1ccc2nc(NC(=O)OC)[nH]c2c1	fulfilled

[Q] Dear colleague, could you confirm whether CC(C)(C)[C@]1(O)CC2OC(=O)CC23C(=O)OC2OC(=O)[C@H](O)C231 (stereo partly shown) [Bilobalide] has inhibition at 110 µM at or above 10%?
[A] not fulfilled

[Q] Dear colleague, could you confirm whether Clc1ccc(C(Cn2ccnc2)OCc2ccsc2Cl)c(Cl)c1 (stereo not shown) has inhibition at 110 µM at or above 10%?
[A] fulfilled

[Q] Dear colleague, could you confirm whether O=c1cccc2n1C[C@H]1C[C@@H]2CN2CCCC[C@H]12 has inhibition at 110 µM at or above 10%?
[A] fulfilled

[Q] Dear colleague, could you confirm whether CC[C@H]1OC(=O)[C@H](C)[C@@H](O[C@H]2C[C@@](C)(OC)[C@@H](O)[C@H](C)O2)[C@H](C)[C@@H](O[C@@H]2O[C@H](C)C[C@H](N(C)C)[C@H]2O)[C@](C)(OC)C[C@@H](C)C(=O)[C@H](C)[C@@H](O)[C@]1(C)O has inhibition at 110 µM at or above 10%?
[A] fulfilled

[Q] Dear colleague, could you confirm whether OC[C@H]1O[C@@H](O[C@@H]2OC=C[C@H]3[C@H](O)[C@@H]4O[C@]4(CO)[C@@H]23)[C@H](O)[C@@H](O)[C@@H]1O has inhibition at 110 µM at or above 10%?
[A] not fulfilled

[Q] Dear colleague, could you confirm whether CCN1C[C@]2(COC)[C@H](O)C[C@H](OC)[C@]34C1[C@H]([C@H](OC)[C@H]23)[C@@]1(OC(C)=O)C[C@H](OC)[C@@]2(O)C[C@@H]4[C@@H]1[C@H]2OC(=O)c1ccc(OC)cc1 has inhibition at 110 µM at or above 10%?
[A] fulfilled

====

# Test system: C. elegans
# experiment-summary: microbe, parasite or virus in culture
# measurement-setup: Caenorhabditis elegans, 0 h, read-out: Percentage of motility inhibition 0 h, Table S2, C. elegans SS assay, 110 μM, 0 h, averages of 4 data points
property: inhibition at 110 µM (%)
Entry rule: numbers only, all in %.

Examples with answers:
compound	inhibition at 110 µM [%]
COC(=O)Nc1nc2ccccc2[nH]1	18
COc1ccc(-c2coc3cc(O[C@@H]4O[C@H](CO)[C@@H](O)[C@H](O)[C@H]4O)ccc3c2=O)cc1	10
C=C1CCC[C@]2(C)CC[C@@H](C(C)(C)O)C[C@@H]12	0
C[C@@H]1CC[C@@]2(NC1)O[C@H]1C[C@H]3[C@@H]4CC=C5C[C@@H](O[C@@H]6O[C@H](CO)[C@@H](O[C@@H]7O[C@@H](C)[C@H](O)[C@@H](O)[C@H]7O)[C@H](O)[C@H]6O[C@@H]6O[C@@H](C)[C@H](O)[C@@H](O)[C@H]6O)CC[C@]5(C)[C@H]4CC[C@]3(C)[C@H]1[C@@H]2C	0
CC(=O)O[C@@]12CO[C@@H]1C[C@H](O)[C@@]1(C)C(=O)[C@H](O)C3=C(C)[C@@H](OC(=O)[C@H](O)[C@@H](NC(=O)OC(C)(C)C)c4ccccc4)C[C@@](O)([C@@H](OC(=O)c4ccccc4)[C@H]21)C3(C)C	1

[Q] # lookup: inhibition at 110 µM of C=C(CCC=C(C)C)[C@H]1CC[C@]2(C)[C@@H]1[C@H](O)C[C@@H]1[C@@]3(C)C[C@@H](O)[C@H](O[C@@H]4O[C@H](CO)[C@@H](O)[C@H](O)[C@H]4O[C@@H]4O[C@H](CO)[C@@H](O)[C@H](O)[C@H]4O)C(C)(C)[C@@H]3CC[C@]12C
[A] 9

[Q] # lookup: inhibition at 110 µM of C=C1CCC2(C(C)C)CC12 (stereo not drawn)
[A] 0

[Q] # lookup: inhibition at 110 µM of COc1ccc(Cc2cnc(N)nc2N)cc1OC
[A] 17

[Q] # lookup: inhibition at 110 µM of O=C1OCCN1/N=C/c1ccc([N+](=O)[O-])o1
[A] 21

[Q] # lookup: inhibition at 110 µM of CC(=O)O[C@H]1C[C@@]2(C)[C@@H](C[C@@H](O)[C@H]3[C@@]4(C)CC[C@@H](O)[C@@H](C)[C@@H]4CC[C@@]32C)/C1=C(\CCC=C(C)C)C(=O)O
[A] 0

[Q] # lookup: inhibition at 110 µM of COc1ccc2c(c1OC)CN(C)c1c-2ccc2cc3c(cc12)OCO3 [Dihydrochelerythrine]
[A] 0

[Q] # lookup: inhibition at 110 µM of Cc1nccc2c1[nH]c1ccccc12
[A] 0

[Q] # lookup: inhibition at 110 µM of CC1(C)CCC[C@](C)([C@H]2CC[C@]3(C)[C@@H]2[C@H](O)C[C@@H]2[C@@]4(C)CC[C@H](O)C(C)(C)[C@@H]4CC[C@]23C)O1
[A] 39

[Q] # lookup: inhibition at 110 µM of C[C@@H]1CC[C@H]2C(C)(C)[C@H]3C[C@@]12CC[C@@]3(C)O
[A] 8
